Hey, just so you know, these numbers are from the supplement of paper PMC10065799.

# experimental-system: EPHB2 (UniProt P29323)
# Sequence (P29323 whole entry, looked up): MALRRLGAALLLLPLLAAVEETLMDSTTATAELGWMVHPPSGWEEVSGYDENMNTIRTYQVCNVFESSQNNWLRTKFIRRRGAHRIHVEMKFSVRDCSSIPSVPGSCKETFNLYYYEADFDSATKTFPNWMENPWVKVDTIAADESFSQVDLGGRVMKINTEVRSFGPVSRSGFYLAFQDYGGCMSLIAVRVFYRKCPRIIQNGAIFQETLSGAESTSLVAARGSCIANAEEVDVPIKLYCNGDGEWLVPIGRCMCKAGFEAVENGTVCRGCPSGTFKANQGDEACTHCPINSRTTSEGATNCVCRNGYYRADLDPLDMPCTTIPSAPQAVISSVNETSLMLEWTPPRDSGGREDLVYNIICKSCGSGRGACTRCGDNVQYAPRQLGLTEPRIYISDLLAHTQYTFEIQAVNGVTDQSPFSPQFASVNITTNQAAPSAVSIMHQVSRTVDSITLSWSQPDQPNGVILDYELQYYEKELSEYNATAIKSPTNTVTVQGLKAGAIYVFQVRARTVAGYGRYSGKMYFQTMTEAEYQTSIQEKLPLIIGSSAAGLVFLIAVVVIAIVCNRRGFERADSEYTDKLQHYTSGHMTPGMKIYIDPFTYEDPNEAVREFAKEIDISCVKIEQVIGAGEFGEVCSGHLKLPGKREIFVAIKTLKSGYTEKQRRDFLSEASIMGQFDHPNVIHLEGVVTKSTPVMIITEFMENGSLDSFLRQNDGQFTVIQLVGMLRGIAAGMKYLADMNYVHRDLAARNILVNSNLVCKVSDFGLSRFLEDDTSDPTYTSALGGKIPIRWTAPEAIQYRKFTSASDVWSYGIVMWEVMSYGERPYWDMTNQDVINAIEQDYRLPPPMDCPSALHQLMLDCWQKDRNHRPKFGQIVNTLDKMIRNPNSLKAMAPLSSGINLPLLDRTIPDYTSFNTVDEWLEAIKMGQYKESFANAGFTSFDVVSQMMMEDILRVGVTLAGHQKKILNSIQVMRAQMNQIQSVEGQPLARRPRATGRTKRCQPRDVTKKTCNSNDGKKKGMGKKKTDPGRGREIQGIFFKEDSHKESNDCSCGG
# test-name: phosphorylation enrichment, bacterial display (enrichment ratio); higher = better substrate or ligand; peptides without Tyr show the background;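 further: 11-residue human phosphosite peptides and single-mutation variants displayed on the E. coli surface, counted by deep sequencing, each peptide's frequency after selection divided by its frequency in the unselected input library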;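 further: frequency after pTyr selection over input frequency; kinase dosed for 20-30% of maximal phosphorylation in three min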
Bucketed by reported phosphorylation enrichment, buckets being low-valued (below 0.6), mid-valued (0.6 to below 0.9), high-valued (0.9 or more)

# count of solved cases: 5
{"columns": ["chain", "class-label"],
 "data": [
  ["YDGGCYEQLFV [MC4R_Y41_S36Y]", "high-valued"],
  ["NKVKFYIPDMN [NCR1_Y84]", "low-valued"],
  ["PGLKGYPGLSG [COL4A2_Y306_R304K]", "low-valued"],
  ["RPFSPYIIRGM [LRP5_Y1531_R1529S_YF]", "low-valued"],
  ["ALTDNYMYLVI [HAGH_Y61]", "high-valued"]
]}

Please turn your attention to the following entry.
Kindly identify the class of EDDIIYTQDFM [STK11_Y362_T367M] .
mid-valued

###

# Tested on: c-Abl (mouse)
# test-name: phosphorylation enrichment, bacterial display (enrichment ratio); higher = better substrate or ligand; peptides without Tyr show the background
Recorded measurements of phosphorylation enrichment, one per entry
Output spec: single numeric token, no unit.

Known phosphorylation enrichment results, listed for orientation:
{"columns": ["chain", "experimental-system", "phosphorylation enrichment"],
 "data": [
  ["EWLRRYLENGK [HLA-A_Y195]", "c-Abl (mouse)", 0.581],
  ["FEEVVYQAMEE [TACC3_Y684]", "c-Abl (mouse)", 1.62],
  ["CTTIHNNFMCN [TP53_Y234_Y234N_YF]", "c-Abl (mouse)", 0.593],
  ["NFFDTCIKTCL [IQGAP2_Y1445_Y1445C_YF]", "c-Abl (mouse)", 0.721],
  ["LGGAMYYLEAE [PKHD1_Y452]", "c-Abl (mouse)", 1.2]
]}

I'd like to know its phosphorylation enrichment. The sequence in question is NNTFLYQLVFD [EXO1_Y284]
0.684

I'd like to know its phosphorylation enrichment. The sequence in question is KMATAYIRSMS [BCO1_Y264_R267S]
0.516

I'd like to know its phosphorylation enrichment. The sequence in question is RPIEVYLCPEE [E2F3_Y349_G344R]
1.97

I'd like to know its phosphorylation enrichment. The sequence in question is FGGLRYGFGGL [KRTAP20-2_Y13_V17G_YF]
0.553

I'd like to know its phosphorylation enrichment. The sequence in question is DNEFAYLKAII [HNF4A_Y288_YF]
0.689

I'd like to know its phosphorylation enrichment. The sequence in question is RIFDYYSARKA [STOX1_Y858]
1.08

I'd like to know its phosphorylation enrichment. The sequence in question is DAVKHYMQFQK [CNGA2_Y395_R399Q]
0.356

I'd like to know its phosphorylation enrichment. The sequence in question is FYDANCDGKEY [MAPRE2_Y162_Y162C]
0.81

I'd like to know its phosphorylation enrichment. The sequence in question is DLNATYRTIQG [U2SURP_Y634]
0.641

I'd like to know its phosphorylation enrichment. The sequence in question is GRSTFYWPSPR [GAGE12J_Y10_R13S_YF]
0.726

I'd like to know its phosphorylation enrichment. The sequence in question is IHHIDYFKETT [FGFR1_Y653_K656E_YF]
0.445

I'd like to know its phosphorylation enrichment. The sequence in question is FSPFDYQPCLA [TNS1_Y798_YF]
1.04

I'd like to know its phosphorylation enrichment. The sequence in question is EIIPFYGMSSF [FNDC3B_Y175_T179S_YF]
0.865

I'd like to know its phosphorylation enrichment. The sequence in question is GLRFGYGGLGG [KRTAP20-2_Y15_V17G_YF]
0.455

I'd like to know its phosphorylation enrichment. The sequence in question is DSIRDYEDGTE [CLNS1A_Y214_M218T]
1.02

I'd like to know its phosphorylation enrichment. The sequence in question is LKKKQYTSIHH [APP_Y728]
1.39
